- Experimental Target: MAP/microtubule affinity-regulating kinase 4 (Homo sapiens);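 note: values are averaged percent inhibition of MARK4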
- Experimental Context: at 0.1 µM
Measurement Label: inhibition (%)
Report the figure in % without appending any unit label.

Reported inhibition ( "CCCN(CCS(C)(=O)=O)Cc1ccc(-c2ccc3ncnc(Nc4ccc(OCc5cccc(F)c5)c(Cl)c4)c3c2)o1" ) = 0.58

Record summary for "c1cc(-c2cnn3nc(N4CCOCC4)ccc23)nc(NC2CC2)n1" : reported inhibition = 1.01

For this compound ( "CC(=O)NCc1cccc(C#Cc2cncnc2Nc2ccc(OCc3cccc(F)c3)c(Cl)c2)c1" ), measured inhibition is 2.33

Noted for "N#Cc1c(NC(=O)c2ccc(F)cc2)sc2c1CCCC2" : its inhibition reads 0.11

The value of inhibition measured for the compound "Fc1ccc(-c2nn3ccccc3c2-c2ccncc2)cc1" turned out to be 0.11

Just so you know, measured inhibition for "COc1ccc(-c2oc3ncnc(N)c3c2-c2ccc(NC(=O)Nc3cc(C(F)(F)F)ccc3F)cc2)cc1" came out at 1.52

Item: "Nc1nc(-c2cccc(Cl)c2)c(-c2ccc3ncccc3n2)s1" | inhibition: 1.87

For "CCn1c(-c2nonc2N)nc2c(C#CC(C)(C)O)nc(OC[C@H](N)c3ccccc3)cc21" the compound record lists inhibition as 1.25

Entry under test: "CS(=O)(=O)CCNCc1coc(-c2ccc3ncnc(Nc4ccc(OCc5ccccc5)cc4)c3c2)c1" . Its inhibition was 1.75

Sample "CCn1c(-c2nonc2N)nc2ccccc21" ; inhibition observed: 1.04

Lookup result for "COc1cc(N2CCN(C(C)C)CC2)ccc1Nc1nc(Nc2ccc(F)cc2C(N)=O)c2cc[nH]c2n1" ; measured inhibition: 4.23

response.value for "COc1ccc(-c2nn3ncccc3c2-c2ccnc(Nc3ccc4c(c3)OCCO4)n2)cc1" (field: inhibition) = 1.34

Form: compound = "CCn1c(-c2nonc2N)nc2c(C#CC(C)(C)O)ncc(OC3CCNCC3)c21" ; inhibition = 14

The recorded inhibition for entry "COc1cc2ncn(-c3cc(OCc4ccccc4C(F)(F)F)c(C(=O)N(C)C)s3)c2cc1OC" equals -0.78
